All figures here come from patent US20210388087A1.

Tested System: T1, human CD137-Fc (human, biotin-labeled)
T1 construct: if 90 already holds the Fc, drop the second piece; also called biotin-labeled human CD137 fused to human IgG1 Fc fragment; biotin-human CD137-Fc; not shown: human IgG1 Fc fragment
Test Summary: bead ELISA on biotin-human CD137-Fc with 62.5 pmol free human Fc (control competitor)
Observable: ELISA signal

- DADU01_3#018 (antibody, V domains shown, Human IgG1; light chain GLS3000 (kappa); also called dBBDu123) VH: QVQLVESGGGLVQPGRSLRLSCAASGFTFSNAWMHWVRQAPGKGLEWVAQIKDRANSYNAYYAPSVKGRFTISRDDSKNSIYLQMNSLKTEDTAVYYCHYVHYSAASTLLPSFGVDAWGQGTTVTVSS VL: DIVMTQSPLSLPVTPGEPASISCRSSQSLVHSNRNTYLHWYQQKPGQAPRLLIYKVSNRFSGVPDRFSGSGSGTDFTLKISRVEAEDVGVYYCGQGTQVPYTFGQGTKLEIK: 117000
